target: T1, human programmed cell death protein 1 (hPD-1) C93S (aa 24-167) (Homo sapiens, UniProt Q15116, C93S); experiment: SPR; Carterra LSA; Fab from the ammonium sulfate precipitate of the culture supernatant immobilised on a NiHC200M chip; hPD-1 (1-1024 nM) or mPD-1-Fc (4-1024 nM) as analyte, fourfold dilution series, no regeneration; HBS-EP pH 7.4, 25 °C; medians over the spots of a construct, KD = koff/kon; settings: one partner purified
T1 construct: made as a fusion with a TEV site and human Fc; the Fc was cut off with TEV protease; source: Expi293F, purified (Protein A, TEV cleavage of Fc, SEC; monomer fractions); not shown: Fc (human), C-terminal, cleaved
T1 sequence (Q15116 24-167 C93S): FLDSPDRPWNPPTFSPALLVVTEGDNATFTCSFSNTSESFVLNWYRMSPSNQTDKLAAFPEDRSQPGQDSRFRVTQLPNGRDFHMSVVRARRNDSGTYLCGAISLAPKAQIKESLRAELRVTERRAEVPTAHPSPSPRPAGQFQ
The binders listed here are annotated with their Kd.
Enter your answer as a number in nM; do not include the unit.

Specify reported Kd for the binder shown: toripalimab Fab L.P100N (Fab, V domains shown, as the heavy chain of Sm3; light chain of Sm3 with this change; numbers count from the chain's first residue; source: Brevibacillus, culture supernatant (ammonium sulfate precipitate); not shown: 6xHis, C-terminal, kept; 6xHN, C-terminal, kept) VH: QGQLVQSGAEVKKPGASVKVSCKASGYTFTDYEMHWVRQAPIHGLEWIGVIESETGGTAYNQKFKGRVTITADKSTSTAYMELSSLRSEDTAVYYCAREGITTVATTYYWYFDVWGQGTTVTVSS VL: DVVMTQSPLSLPVTLGQPASISCRSSQSIVHSNGNTYLEWYLQKPGQSPQLLIYKVSNRFSGVPDRFSGSGSGTDFTLKISRVEAEDVGVYYCFQGSHVNLTFGQGTKLEIK
1.39

Specify reported Kd for the binder shown: toripalimab Fab L.P100M (Fab, V domains shown, as the heavy chain of Sm3; light chain of Sm3 with this change; numbers count from the chain's first residue; source: Brevibacillus, culture supernatant (ammonium sulfate precipitate); not shown: 6xHis, C-terminal, kept; 6xHN, C-terminal, kept) VH: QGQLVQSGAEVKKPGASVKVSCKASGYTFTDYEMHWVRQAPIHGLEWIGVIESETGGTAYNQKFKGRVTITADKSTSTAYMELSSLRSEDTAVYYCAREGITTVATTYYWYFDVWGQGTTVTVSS VL: DVVMTQSPLSLPVTLGQPASISCRSSQSIVHSNGNTYLEWYLQKPGQSPQLLIYKVSNRFSGVPDRFSGSGSGTDFTLKISRVEAEDVGVYYCFQGSHVMLTFGQGTKLEIK
3.81

Specify reported Kd for the binder shown: toripalimab Fab H.Y32A (Fab, V domains shown, heavy chain of Sm3 with this change; numbers count from the chain's first residue; as the light chain of Sm3; source: Brevibacillus, culture supernatant (ammonium sulfate precipitate); not shown: 6xHis, C-terminal, kept; 6xHN, C-terminal, kept) VH: QGQLVQSGAEVKKPGASVKVSCKASGYTFTDAEMHWVRQAPIHGLEWIGVIESETGGTAYNQKFKGRVTITADKSTSTAYMELSSLRSEDTAVYYCAREGITTVATTYYWYFDVWGQGTTVTVSS VL: DVVMTQSPLSLPVTLGQPASISCRSSQSIVHSNGNTYLEWYLQKPGQSPQLLIYKVSNRFSGVPDRFSGSGSGTDFTLKISRVEAEDVGVYYCFQGSHVPLTFGQGTKLEIK
4.68
